Test system: NCI-H460 lung
procedure_text: NCI tumour cell line growth inhibition, 48 h
Form field: TGI (one value per entry).

>  <compound>
O=C(CC1(O)C(=O)Nc2ccccc21)c1ccc(Cl)c(Cl)c1 (stereo unspecified)

>  <TGI>
> 100 µM

$$$$
>  <compound>
CCOC(=O)NC(Nc1ccc(F)cc1F)(C(F)(F)F)C(F)(F)F

>  <TGI>
> 100 µM

$$$$
>  <compound>
O=c1[nH]c2nc3ccccc3c(=O)n2nc1Cc1ccccc1

>  <TGI>
> 100 µM

$$$$
>  <compound>
O=c1cc(NNc2ccccc2)[nH]c(=O)[nH]1

>  <TGI>
98.9 µM

$$$$
>  <compound>
CCOP(=O)(OCC)C(c1ccc(F)cc1)N(C(=O)NC(F)(F)F)c1ccc(F)cc1 (stereo unspecified)

>  <TGI>
> 100 µM

$$$$
>  <compound>
Nc1nc(N)nc(CCCCc2nc(N)nc(N)n2)n1

>  <TGI>
> 100 µM

$$$$
>  <compound>
O=C(O)/C=C/c1c2ccc(=O)c(O)c-2oc2c(O)c(O)ccc12

>  <TGI>
> 100 µM

$$$$
>  <compound>
O=C(c1ccc(Cl)cc1Cl)N1CCN(C(=O)c2ccc(Cl)cc2Cl)C1=S

>  <TGI>
> 100 µM

$$$$
>  <compound>
COc1cc(C[C@@]2(C)[C@@H]3CCC[C@H](CO)[C@@]3(C)CC[C@@H]2C)c(Cl)c(OC)c1

>  <TGI>
36.3 µM

$$$$
>  <compound>
O=C(Nc1cc(Cl)c(I)c(Cl)c1)C(F)(F)F

>  <TGI>
> 100 µM

$$$$
>  <compound>
Cc1cccc(CNc2c3ccccc3nc3ccccc23)c1

>  <TGI>
5.03 µM

$$$$

---

# TGI listing for each entry below
System: M14 melanoma
procedure_text: NCI tumour cell line growth inhibition, 48 h
quantity_name: TGI

>  <compound>
COc1ccc(-c2cn(C)c3c2-n2cccc2C3=O)cc1O

>  <result>
20.3 µM

$$$$
>  <compound>
COc1ccc(N2C(=O)C3ON(Cc4ccc(CC(N)=O)cc4)C(c4c5ccccc5c(C)c5ccccc45)C3C2=O)cc1 (stereo unspecified)

>  <result>
> 100 µM

$$$$
>  <compound>
COc1ccc(-c2c(C#N)c(N)[nH]c(=S)c2C#N)cc1

>  <result>
> 100 µM

$$$$
>  <compound>
NCC(=O)Nc1ccc(Cl)cc1C(=O)c1ccc[nH]1

>  <result>
> 100 µM

$$$$
>  <compound>
CCOC(=O)c1ccc(N=Cc2ccc(N(CCC#N)S(=O)(=O)c3ccccc3)cc2C)cc1

>  <result>
> 100 µM

$$$$
>  <compound>
Nc1n[n+]([O-])c2ccc(Cl)cc2[n+]1[O-]

>  <result>
40.4 µM

$$$$
>  <compound>
CCOC(=O)NC(Nc1ccc(F)cc1F)(C(F)(F)F)C(F)(F)F

>  <result>
> 100 µM

$$$$
>  <compound>
Cc1cc(NS(=O)(=O)c2ccc(NC(=O)c3ccc(Cl)c4c(Nc5ccc(S(=O)(=O)Nc6cc(C)on6)cc5)c5ccccc5nc34)cc2)no1

>  <result>
49.4 µM

$$$$
>  <compound>
CC1=C(C)C(=O)OC(C(C)(O)C2(O)CC3OC34C3CC(O)C56OC5C=CC(=O)C6(C)C3CCC42C)C1 (stereo unspecified)

>  <result>
12.6 µM

$$$$
>  <compound>
COc1ccc(Cn2cc3c(c2-c2ccccc2)CCc2cnoc2-3)cc1

>  <result>
> 100 µM

$$$$
>  <compound>
CC(=O)/C=C1\CC(=O)N(C)c2ccccc2N1

>  <result>
> 100 µM

$$$$
